settings: in n-propanol, 328.15 K
MEASUREMENT_KIND: solubility (mole fraction)
Just the number, please.

*Q* Supply recorded solubility (mole fraction) for CCOc1nc2cccc(C(=O)OC(C)OC(=O)OC3CCCCC3)c2n1Cc1ccc(-c2ccccc2-c2nn[nH]n2)cc1 (stereo unspecified) here.
*A* 0.00759

* * *

conditions: in isopropanol, 318.15 K
MEASUREMENT_KIND: solubility (mole fraction)
Just the number, please.

*Q* Supply recorded solubility (mole fraction) for CCOc1nc2cccc(C(=O)OC(C)OC(=O)OC3CCCCC3)c2n1Cc1ccc(-c2ccccc2-c2nn[nH]n2)cc1 (stereo unspecified) here.
*A* 0.00298
